Tested on: HSV-1 (KOS)
MEASUREMENT NOTES: HSV-1 infection ELISA assay
Type: cell-based, herpes simplex virus
TEST CONDITIONS: Table 12; inosine-substituted oligonucleotides against HSV
[I] = hypoxanthine (inosine)
Would you kindly list EC50 for each of these substances?
Value expressed in nM; do not type the unit.

Form: Entry = 5310 (GTTGGAGACCGGGGTTGGGN; DNA, [I] at 20, backbone not given here) [compound 5310] | System = HSV-1 (KOS) | EC50 = ____
400

Repeat for the following substance: 5296 (GTTGGAGACCGGGGTTGGNG; DNA, [I] at 19, backbone not given here) [compound 5296]
800

Repeat for the following substance: 4925 (GTTGGAGACCGGNGTTGGNG; DNA, [I] at 13, 19, backbone not given here) [compound 4925]
1600

----------
EXPERIMENTAL TARGET: human type II phospholipase A2 (Homo sapiens, UniProt P14555)
Sequence (P14555 21-144): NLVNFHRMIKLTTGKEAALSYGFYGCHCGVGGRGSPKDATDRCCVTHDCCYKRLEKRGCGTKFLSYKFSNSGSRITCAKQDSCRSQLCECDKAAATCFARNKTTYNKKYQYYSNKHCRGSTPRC
MEASUREMENT NOTES: Phospholipase A2 assay, 3H-oleic acid labelled E. coli substrate
Type: biochemical
TEST CONDITIONS: Table 4; 1 μM
Strand notation (5' to 3'): a small letter for the sugar, then the base; units joined by * are phosphorothioate-linked, units joined directly phosphodiester-linked; [ ] holds rarer units or linkages, { } end groups; capitals alone tell only the bases. d = 2'-deoxy (DNA)
Would you kindly list % Inhibition (1 μM) for each of these substances?
Value expressed in %; do not type the unit.

Give the measured % Inhibition (1 μM) of 3712 (dA*dG*dG*dA*dG*dT*dC*dC*dT*dG*dT*dT*dT*dT*dG*dA*dA*dA*dT*dC*dA) [compound 3712] .
31.8

Repeat for the following substance: 3184 (antisense dT*dT*dC*dA*dT*dG*dG*dT*dA*dA*dG*dA*dG*dT*dT*dC*dT*dT*dG*dG*dG) [compound 3184]
25.1

Repeat for the following substance: 3468 (dG*dG*dG*dA*dC*dT*dC*dA*dG*dC*dA*dA*dC*dG*dA*dG*dG*dG*dG*dT*dG) [compound 3468]
97.5

Repeat for the following substance: 4133 (dA*dG*dT*dG*dC*dA*dC*dG*dT*dT*dG*dA*dG*dT*dA*dT*dG*dT*dG*dA*dG) [compound 4133]
37.3

----------
System: human T-lymphoblastoid CEM cell line
Strand notation (5' to 3'): a small letter for the sugar, then the base; units joined by * are phosphorothioate-linked, units joined directly phosphodiester-linked; [ ] holds rarer units or linkages, { } end groups; capitals alone tell only the bases. d = 2'-deoxy (DNA)
Kindly apply the following: y if TC50 is less than 20 µM, n in every other case.

Just wondering, is TC50 of 5650 (TTGGGGTTGGGGTTGGGGTT; phosphodiester, further chemistry not given here) [compound 5650] below 20 µM?
y

Repeat for the following substance: 5667 (DNA TTGGGGTTGGGGTT; unmodified DNA) [compound 5667]
y

Repeat for the following substance: 5653 (TTGGGGTTGGGGTTGGGG; phosphorothioate, further chemistry not given here) [compound 5653]
n

Repeat for the following substance: 5674 (DNA dT*dT*dG*dG*dG*dG*dT*dT*dG*dG*dG*dG) [compound 5674]
n

Repeat for the following substance: 5675 (DNA dT*dT*dG*dG*dG*dG*dT*dT*dG*dG*dG*dG*dT*dT) [compound 5675]
y
